- Subject of test: Fel d 4 (Felis catus, UniProt Q5VFH6)
- Construct: polyhistidine tag (C); made in house; host or cells: E. coli Rosetta-gami 2
- Sequence (Q5VFH6 16-186): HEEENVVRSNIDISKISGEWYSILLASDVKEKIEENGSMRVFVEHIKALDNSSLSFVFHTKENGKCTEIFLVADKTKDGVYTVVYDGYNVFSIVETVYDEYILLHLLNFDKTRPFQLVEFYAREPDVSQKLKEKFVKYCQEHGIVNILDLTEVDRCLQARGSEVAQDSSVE
- Experiment summary: Fluorochrome binding to Fel d 4 (emission spectra and titration)
- Set-up: species or system cat
- Condition summary: 5 μM Fel d 4 with 5 μM fluorochrome
- Experimental: Stock solutions were prepared at a concentration of 10 mM in 100% ethanol for the fluorochromes 1-aminoanthracene (1-AMA), 8-anilino-1-naphthalensulfonic acid (1,8-ANS) and for all ligands, and in 100% methanol for n-phenyl-1-naphthylamine (1-NPN), respectively. […] Fluorochrome-protein complexes were analyzed at an equimolar concentration of 5 μM in PBS with 5% ethanol in a volume of 100 μL per well in black 96-well non-binding microplates (Greiner Bio-One GmbH, Frickenhausen, Germany). […]
Measured endpoint: Increase of fluorescence intensity upon binding

# Smiles record, Subject of test, Assay value
measured = [
    ("O=S(=O)(O)c1cccc2cccc(Nc3ccccc3)c12", "Fel d 4 (Felis catus, UniProt Q5VFH6)", "neither reacted"),
    ("c1ccc(Nc2cccc3ccccc23)cc1", "Fel d 4 (Felis catus, UniProt Q5VFH6)", "2–3 fold"),
    ("Nc1cccc2cc3ccccc3cc12", "Fel d 4 (Felis catus, UniProt Q5VFH6)", "neither reacted"),
    ("CN(C)c1cccc2c(S(=O)(=O)NCCCCCCCCCCC(=O)O)cccc12", "Fel d 4 (Felis catus, UniProt Q5VFH6)", "neither reacted"),
]
